# assay.info: Acute toxicity in mouse administered as single ip dose
# Type: organism-based
# conditions: in vivo
endpoint.name: LD50 (mg/kg)
Give your result in mg/kg as a bare value.

[
  {
    "compound": "NNC(=O)c1ccncc1",
    "unit.annotation": "mg/kg",
    "LD50": 151
  }
]

What value of LD50 has been reported for the following compound? NC(=O)c1cnccn1 [PYRAZINAMIDE] 1680

====

# System: Mycobacterium avium
# assay.info: Antimycobacterial activity against Mycobacterium avium after 10 days by microbroth dilution method
# Format: functional
# conditions: 240 h
Reported MIC by item:
Give your result in µg/mL as a bare value.

Observe how each entry below is paired with its result.
[
  {
    "compound.string": "NNC(=O)c1ccncc1",
    "system.tested": "Mycobacterium avium",
    "MIC (µg/mL)": 0.1
  },
  {
    "compound.string": "Brc1cncnc1-c1cccs1",
    "system.tested": "Mycobacterium avium",
    "MIC (µg/mL)": 0.3
  },
  {
    "compound.string": "C(=C\\c1cncnc1-c1ccc(-c2cccs2)s1)/c1ccc(-c2ccccc2)cc1",
    "system.tested": "Mycobacterium avium",
    "MIC (µg/mL)": 0.7
  }
]

Turning now to a further record.
What value of MIC has been reported for the following molecule? "Brc1cncnc1-c1ccco1" 0.7
